What Inhibition 1 was measured for each of the following?
# Measurement target: cloned human or rodent CNS receptors, channels, and transporters (PDSP panel) (Homo sapiens, UniProt P28566)
# Construct: expressed in transfected cells
# Sequence (P28566 whole entry): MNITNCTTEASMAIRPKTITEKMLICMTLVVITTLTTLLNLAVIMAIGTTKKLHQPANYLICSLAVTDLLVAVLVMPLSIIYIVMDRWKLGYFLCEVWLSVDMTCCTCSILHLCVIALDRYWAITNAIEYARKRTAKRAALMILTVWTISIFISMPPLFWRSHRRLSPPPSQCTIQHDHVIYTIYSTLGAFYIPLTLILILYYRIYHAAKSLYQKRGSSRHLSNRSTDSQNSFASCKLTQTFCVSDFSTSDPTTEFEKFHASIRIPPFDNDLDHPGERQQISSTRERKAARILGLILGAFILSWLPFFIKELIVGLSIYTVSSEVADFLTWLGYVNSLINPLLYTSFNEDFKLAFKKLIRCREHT
# Test summary: PDSP GPCR panel primary binding assays at 10 μM
# Run conditions: 5-HT1E; primary assay, replicate 1
Give bare numbers, in %.

These solved cases illustrate the format of a correct answer.
>  <Compound>
CC(=O)N1CCC(NC(=O)NC23CC4CC(CC(C4)C2)C3)CC1 [UNC10302683A, AR9281]

>  <Assay result>
8.11

$$$$
>  <Compound>
CCC(=O)N1CCC(NC(=O)Nc2ccc(OC(F)(F)F)cc2)CC1 [UNC10302681A, TPPU]

>  <Assay result>
0.45

$$$$
>  <Compound>
O=C(NC1CC1)C(=O)C(Cc1ccccc1)NC(=O)[C@H]1CCC(=O)N1Cc1ccccc1 (stereo partly shown) [UNC10302676A, ABT-957 (Alicapistat)]

>  <Assay result>
3.28

$$$$

Exam item: Look up and state reported Inhibition 1 for CNc1nc(C)nc(N[C@H]2CCC[C@@H](C(=O)NCc3ccc(C#N)cc3C(F)(F)F)C2)n1 [UNC10302679A, GSK2256294A]
Marked response: 1.79

---

Exercise: for every item that follows, state its recorded Inhibition 2.
# Measurement target: cloned human or rodent CNS receptors, channels, and transporters (PDSP panel) (Homo sapiens)
# Construct: expressed in transfected cells
# Test summary: PDSP GPCR panel primary binding assays at 10 μM
# Run conditions: Receptor M4; primary assay, 10 μM
Answers are plain numbers, in %.

Worked set:
>  <Compound>
O=c1oc2ccccc2cc1-c1cn2cc(Cc3ccc(F)cc3)sc2n1 [UNC10302680A, iMDK]

>  <Inhibition 2 / %>
16.88

$$$$
>  <Compound>
c1cn2cc(-c3ccc4cn[nH]c4c3)nc(Nc3ccc(N4CCOCC4)cc3)c2n1 [UNC10302678A, Entospletinib (GS-9973)]

>  <Inhibition 2 / %>
0.8

$$$$
>  <Compound>
Cl.NC(=O)c1cnc(N[C@@H]2CCCC[C@@H]2N)nc1Nc1cccc(-n2nccn2)c1 [UNC10302682A, P505-15 (PRT06207 HCl)]

>  <Inhibition 2 / %>
6.78

$$$$

Now take the following compound into account.
Exam item: Give reported Inhibition 2 value for CCCCNc1ncc2c(-c3ccc(CN4CCN(C)CC4)cc3)cn([C@H]3CC[C@H](O)CC3)c2n1 [UNC2025C, UNC2025]
Marked response: 3.79

---

# Measurement target: cloned human or rodent CNS receptors, channels, and transporters (PDSP panel) (Homo sapiens, UniProt P08908)
# Construct: expressed in transfected cells
# Sequence (P08908 1-422): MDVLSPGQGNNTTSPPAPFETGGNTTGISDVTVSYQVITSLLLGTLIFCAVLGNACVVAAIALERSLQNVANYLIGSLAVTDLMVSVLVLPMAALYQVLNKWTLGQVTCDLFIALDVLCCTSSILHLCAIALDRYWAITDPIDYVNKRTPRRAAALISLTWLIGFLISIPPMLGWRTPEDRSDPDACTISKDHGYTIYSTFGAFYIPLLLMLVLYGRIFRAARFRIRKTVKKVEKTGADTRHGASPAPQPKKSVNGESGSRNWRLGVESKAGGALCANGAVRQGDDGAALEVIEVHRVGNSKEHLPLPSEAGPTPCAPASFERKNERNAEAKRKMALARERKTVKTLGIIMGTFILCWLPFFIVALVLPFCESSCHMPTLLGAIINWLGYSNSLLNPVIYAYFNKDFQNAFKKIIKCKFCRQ
# Test summary: PDSP GPCR panel primary binding assays at 10 μM
# Run conditions: 5-HT1A; primary assay, replicate 3
Consider the following compounds; for each one, report its Inhibition 3.
Numbers only, in %.

>  <Compound>
CNc1nc(C)nc(N[C@H]2CCC[C@@H](C(=O)NCc3ccc(C#N)cc3C(F)(F)F)C2)n1 [UNC10302679A, GSK2256294A]

>  <Endpoint unit>
%

>  <Inhibition 3>
-9.57

$$$$
>  <Compound>
CC(=O)N1CCC(NC(=O)NC23CC4CC(CC(C4)C2)C3)CC1 [UNC10302683A, AR9281]

>  <Endpoint unit>
%

>  <Inhibition 3>
-5.6

$$$$
>  <Compound>
CCC(=O)N1CCC(NC(=O)Nc2ccc(OC(F)(F)F)cc2)CC1 [UNC10302681A, TPPU]

>  <Endpoint unit>
%

>  <Inhibition 3>
0.78

$$$$

Consider the record given below.
Exam item: Identify measured Inhibition 3 corresponding to O=C(NC1CC1)C(=O)C(Cc1ccccc1)NC(=O)[C@H]1CCC(=O)N1Cc1ccccc1 (stereo partly shown) [UNC10302676A, ABT-957 (Alicapistat)]
Marked response: 6.64

---

# Measurement target: H4 receptor (Homo sapiens, UniProt Q9H3N8)
# Construct: expressed in transfected cells
# Sequence (Q9H3N8 whole entry): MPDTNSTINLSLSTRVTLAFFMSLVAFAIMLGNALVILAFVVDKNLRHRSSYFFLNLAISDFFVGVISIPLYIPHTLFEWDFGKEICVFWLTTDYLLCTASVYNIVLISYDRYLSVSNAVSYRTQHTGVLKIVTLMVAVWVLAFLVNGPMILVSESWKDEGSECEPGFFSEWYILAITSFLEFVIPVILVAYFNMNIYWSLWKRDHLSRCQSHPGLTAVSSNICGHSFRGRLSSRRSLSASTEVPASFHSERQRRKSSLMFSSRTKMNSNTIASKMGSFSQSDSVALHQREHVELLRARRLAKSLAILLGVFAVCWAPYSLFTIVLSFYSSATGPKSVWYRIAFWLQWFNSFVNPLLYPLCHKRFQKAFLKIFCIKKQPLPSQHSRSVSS
# Test summary: PDSP secondary binding, H4
# Parameters: species or system human or rodent
# Run conditions: Receptor H4; secondary assay; read-out: Ki (nM) 1
Assay readout: Ki (nM)
Give bare numbers, in nM.

Exam item: Specify measured Ki for CCCCNc1ncc2c(-c3ccc(CN4CCN(C)CC4)cc3)cn([C@H]3CC[C@H](O)CC3)c2n1 [UNC2025C, UNC2025] .
Marked response: 4000

---

# Measurement target: cloned human or rodent CNS receptors, channels, and transporters (PDSP panel) (Homo sapiens)
# Construct: expressed in transfected cells
# Test summary: PDSP GPCR panel primary binding assays at 10 μM
# Run conditions: Receptor D2; primary assay, 10 μM; mean of Inhibition 1-4
So I've got a bunch of compounds here, and I need their Mean % values.
One number for each entry, in %.

Guide cases for Mean %, answers given:
>  <Compound>
O=c1oc2ccccc2cc1-c1cn2cc(Cc3ccc(F)cc3)sc2n1 [UNC10302680A, iMDK]

>  <Mean % [%]>
2.13

$$$$
>  <Compound>
c1cn2cc(-c3ccc4cn[nH]c4c3)nc(Nc3ccc(N4CCOCC4)cc3)c2n1 [UNC10302678A, Entospletinib (GS-9973)]

>  <Mean % [%]>
2.98

$$$$
>  <Compound>
Cl.NC(=O)c1cnc(N[C@@H]2CCCC[C@@H]2N)nc1Nc1cccc(-n2nccn2)c1 [UNC10302682A, P505-15 (PRT06207 HCl)]

>  <Mean % [%]>
5.73

$$$$

The record that follows has no Mean % shown yet.
Exam item: State its Mean %: CCCCNc1ncc2c(-c3ccc(CN4CCN(C)CC4)cc3)cn([C@H]3CC[C@H](O)CC3)c2n1 [UNC2025C, UNC2025]
Marked response: 2.06

---

# System: cloned human or rodent CNS receptors, channels, and transporters (PDSP panel)
# Test summary: PDSP GPCR panel primary binding assays at 10 μM
# Run conditions: Receptor Alpha1A; primary assay, 10 μM
Record form. Attribute: Inhibition 1. Fill in for each entry.
One number for each entry, in %.

Worked examples follow.
>  <Compound>
O=c1oc2ccccc2cc1-c1cn2cc(Cc3ccc(F)cc3)sc2n1 [UNC10302680A, iMDK]

>  <Assay readout>
Inhibition 1

>  <Assay result>
-21.6

$$$$
>  <Compound>
CCCCNc1ncc2c(-c3ccc(CN4CCN(C)CC4)cc3)cn([C@H]3CC[C@H](O)CC3)c2n1 [UNC2025C, UNC2025]

>  <Assay readout>
Inhibition 1

>  <Assay result>
55.27

$$$$
>  <Compound>
Cl.NC(=O)c1cnc(N[C@@H]2CCCC[C@@H]2N)nc1Nc1cccc(-n2nccn2)c1 [UNC10302682A, P505-15 (PRT06207 HCl)]

>  <Assay readout>
Inhibition 1

>  <Assay result>
22.91

$$$$

Could you now look at the following compound, please?
Exam item: Report Inhibition 1, nothing else, for this compound: c1cn2cc(-c3ccc4cn[nH]c4c3)nc(Nc3ccc(N4CCOCC4)cc3)c2n1 [UNC10302678A, Entospletinib (GS-9973)]
Marked response: -6.64

---

# Measurement target: cloned human or rodent CNS receptors, channels, and transporters (PDSP panel) (Homo sapiens)
# Construct: expressed in transfected cells
# Test summary: PDSP GPCR panel primary binding assays at 10 μM
# Run conditions: Receptor 5-HT1D; primary assay, 10 μM
# Method: GPCR panel: Screening against the receptors within the PDSP panel offers an assessment of off-target pharmacological activity at cloned human or rodent CNS receptors, channels, and transporters that could confound CNS-related phenotypes. A total of 46–47 primary binding assays were run in quadruplicate on these compounds at 10 μM, with follow-up secondary binding assays in 11-point dose-response in triplicate for select compounds versus select receptors. […]
Assay readout: Inhibition 3 (%)
One number for each entry, in %.

>  <Compound>
c1cn2cc(-c3ccc4cn[nH]c4c3)nc(Nc3ccc(N4CCOCC4)cc3)c2n1 [UNC10302678A, Entospletinib (GS-9973)]

>  <Endpoint unit>
%

>  <Inhibition 3>
-25.09

$$$$
>  <Compound>
CCCCNc1ncc2c(-c3ccc(CN4CCN(C)CC4)cc3)cn([C@H]3CC[C@H](O)CC3)c2n1 [UNC2025C, UNC2025]

>  <Endpoint unit>
%

>  <Inhibition 3>
26.55

$$$$
>  <Compound>
O=c1oc2ccccc2cc1-c1cn2cc(Cc3ccc(F)cc3)sc2n1 [UNC10302680A, iMDK]

>  <Endpoint unit>
%

>  <Inhibition 3>
15.72

$$$$

Now look at this one.
Exam item: Note down Inhibition 3 recorded for Cl.NC(=O)c1cnc(N[C@@H]2CCCC[C@@H]2N)nc1Nc1cccc(-n2nccn2)c1 [UNC10302682A, P505-15 (PRT06207 HCl)]
Marked response: 54.87
